System: human trypsin
Assay Comment: Inhibition of serine protease activity, trypsin, chromogenic substrate Pefachrome Try
Assay type: biochemical
Condition Details: 2 nM human trypsin, 300 μM substrate, pH 7.5
Property Label: IC50

In the examples that follow, each entry is paired with its recorded IC50.
INSERT INTO results (structure_notation, test_value) VALUES
  ('Cc1ncc(CNc2ccc(-c3ccccc3S(N)(=O)=O)cc2)c(CO)c1O', '> 1000 µM'),
  ('Cc1ncc(CNC(=O)c2ccc(-c3ccccc3S(N)(=O)=O)cc2)c(CO)c1OCc1cccc(C(=N)N)c1', '24 µM');

Go through the list and state IC50 for each entry.
1. Cc1ncc(CO)c(CNc2cccc(-c3ccccc3S(N)(=O)=O)c2)c1O
2. Cc1ncc(CNC(=O)c2ccc(-c3ccccc3S(N)(=O)=O)cc2)c(CO)c1O

1. > 1000 µM
2. > 1000 µM

----------
# collection of pIC50 values tested on UniProt:P00742
Give bare numbers, as −log10 of the molar value.

INSERT INTO assay_data (compound, test_value) VALUES
  ('Cc1ncc(CNc2ccc(-c3ccccc3S(N)(=O)=O)cn2)c(CO)c1OCc1cccc(C(=N)N)c1', 4.96),
  ('Cc1ncc(CO)c(CNc2ccc(-c3ccccc3S(N)(=O)=O)cc2)c1OCc1cccc(C(=N)N)c1', 5.40);

Please examine the following record next.
Give the value of pIC50 reported for the following: Cc1ncc(CNc2ccc(C(=N)N)cc2)c(CO)c1O [Compound 33, reference compound]
3.98

----------
System: platelets (platelet rich plasma)
Assay Comment: Inhibition of platelet aggregation in platelet rich plasma (Chrono-log aggregometer)
Format: cell-based
Condition Details: agonist collagen 5 μg/mL, compound concentration 250 μM, human PRP, read-out: % Reduction in Aggregation, Collagen (5 μg/mL)
Property Label: inhibition at 250 µM

INSERT INTO measurements (molecule, test_value) VALUES
  ('Cc1ncc(CNc2cccc(-c3ccccc3S(N)(=O)=O)c2)c(CO)c1O [Compound 21]', '0%');

Go through the list and state inhibition at 250 µM for each entry.
1. Cc1ncc(CO)c(CNc2cccc(-c3ccccc3S(N)(=O)=O)c2)c1OCc1ccc(C(=N)N)cc1 [Compound 28]
2. Cc1ncc(CNc2ccc(-c3ccccc3S(N)(=O)=O)cc2)c(CO)c1O [Compound 3]
3. Cc1ncc(CNC(=O)c2ccc(-c3ccccc3S(N)(=O)=O)cc2)c(CO)c1O [Compound 6]
4. Cc1ncc(CNc2ccc(-c3ccccc3S(N)(=O)=O)cc2)c(CO)c1OCc1cccc(C(=N)N)c1 [Compound 14]
5. Cc1ncc(CNc2ccc(-c3ccccc3S(N)(=O)=O)cn2)c(CO)c1OCc1cccc(C(=N)N)c1 [Compound 16]
6. Cc1ncc(CNc2ccc(-c3ccc(C(=N)N)cc3)cc2)c(CO)c1O [Compound 34, reference compound]

1: 15%; 2: 5%; 3: 0%; 4: 5%; 5: 0%; 6: 1%

----------
System: human trypsin
Assay Comment: Inhibition of serine protease activity, trypsin, chromogenic substrate Pefachrome Try
Assay type: biochemical
Condition Details: 2 nM human trypsin, 300 μM substrate, pH 7.5
Property Label: pIC50
One number for each entry, as −log10 of the molar value.

INSERT INTO results (molecule, test_value) VALUES
  ('Cc1ncc(CNc2ccc(C(=N)N)cc2)c(CO)c1O [Compound 33, reference compound]', 4.74),
  ('Cc1ncc(CO)c(CNc2cccc(-c3ccccc3S(N)(=O)=O)c2)c1OCc1ccc(C(=N)N)cc1', 5.52);

Please examine the following record next.
Fill: pIC50 (human trypsin) for this molecule "Cc1ncc(CO)c(CNc2ccc(-c3ccccc3S(N)(=O)=O)cc2F)c1OCc1ccc(C(=N)N)cc1"
5.40

----------
Please respond with reported IC50 for every item in the list.
Test system: human trypsin
Assay Comment: Inhibition of serine protease activity, trypsin, chromogenic substrate Pefachrome Try
Format: biochemical
Condition Details: 2 nM human trypsin, 300 μM substrate, pH 7.5

In the examples that follow, each entry is paired with its recorded IC50.
INSERT INTO results (compound, property_label, test_value) VALUES
  ('Cc1ncc(CNc2ccc(-c3ccccc3S(N)(=O)=O)cn2)c(CO)c1OCc1cccc(C(=N)N)c1', 'IC50', '11 µM'),
  ('Cc1ncc(CNc2ccc(-c3ccc(C(=N)N)cc3)cc2)c(CO)c1O [Compound 34, reference compound]', 'IC50', '4 µM'),
  ('Cc1ncc(CO)c(CNc2ccc(-c3ccccc3S(=O)(=O)NC(C)(C)C)cc2)c1O', 'IC50', '> 1000 µM');

Please examine the following record next.
Give the value of IC50 reported for the following: "Cc1ncc(CO)c(CNc2ccc(-c3ccccc3S(N)(=O)=O)cc2)c1O"
> 1000 µM

----------
Test system: human trypsin
Assay Comment: Inhibition of serine protease activity, trypsin, chromogenic substrate Pefachrome Try
Type: biochemical
Condition Details: 2 nM human trypsin, 300 μM substrate, pH 7.5
Please respond with reported pIC50 for every item in the list.
Give bare numbers, as −log10 of the molar value.

INSERT INTO results (structure_notation, test_value) VALUES
  ('Cc1ncc(CO)c(CNc2ccc(-c3ccccc3S(N)(=O)=O)cc2)c1OCc1cccc(C(=N)N)c1', 4.82);

Please examine the following record next.
Give the value of pIC50 reported for the following: "Cc1ncc(CNc2ccc(-c3ccccc3S(N)(=O)=O)cc2)c(CO)c1OCc1cccc(C(=N)N)c1"
4.92

----------
Measured Target: human Factor Xa (fXa) (Homo sapiens, UniProt P00742)
Sequence (P00742 235-488 limits assumed): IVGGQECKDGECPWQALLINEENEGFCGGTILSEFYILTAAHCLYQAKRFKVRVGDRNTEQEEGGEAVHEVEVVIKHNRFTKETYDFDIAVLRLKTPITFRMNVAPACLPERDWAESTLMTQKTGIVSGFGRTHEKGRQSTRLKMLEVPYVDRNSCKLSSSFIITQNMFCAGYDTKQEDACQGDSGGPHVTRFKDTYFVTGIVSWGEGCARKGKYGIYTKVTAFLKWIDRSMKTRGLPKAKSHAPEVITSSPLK
Sequence (P00742 41-179 partner limits assumed): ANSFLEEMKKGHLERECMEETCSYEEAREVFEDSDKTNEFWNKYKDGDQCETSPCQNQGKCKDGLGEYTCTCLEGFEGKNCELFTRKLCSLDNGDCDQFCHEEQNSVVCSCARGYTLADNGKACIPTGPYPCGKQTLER
Property Label: pIC50
One number for each entry, as −log10 of the molar value.

INSERT INTO results (compound, test_value) VALUES
  ('Cc1ncc(CO)c(CNc2ccc(-c3ccccc3S(N)(=O)=O)cc2F)c1OCc1ccc(C(=N)N)cc1', 4.74),
  ('Cc1ncc(CO)c(CNc2ccc(-c3ccccc3S(=O)(=O)NC(C)(C)C)cc2)c1O', 3.71);

Please examine the following record next.
Fill: pIC50 (human Factor Xa (fXa) (Homo sapiens, UniProt P00742)) for this compound Cc1ncc(CNc2ccc(-c3ccc(C(=N)N)cc3)cc2)c(CO)c1O [Compound 34, reference compound]
4.54

----------
Please respond with reported IC50 for every item in the list.
Measured Target: human thrombin (factor IIa, fIIa) (Homo sapiens)

In the examples that follow, each entry is paired with its recorded IC50.
INSERT INTO assay_data (compound, property_label, test_value) VALUES
  ('Cc1ncc(CNc2cccc(-c3ccccc3S(N)(=O)=O)c2)c(CO)c1O [Compound 21]', 'IC50', '> 1000 µM'),
  ('Cc1ncc(CNC(=O)c2ccc(-c3ccccc3S(=O)(=O)NC(C)(C)C)cc2)c(CO)c1O [Compound 5]', 'IC50', '> 1000 µM'),
  ('Cc1ncc(CNc2ccc(-c3ccc(C(=N)N)cc3)cc2)c(CO)c1O [Compound 34, reference compound]', 'IC50', '> 1000 µM'),
  ('Cc1ncc(CO)c(CNc2cccc(-c3ccccc3S(N)(=O)=O)c2)c1OCc1ccc(C(=N)N)cc1 [Compound 28]', 'IC50', '476 µM'),
  ('Cc1ncc(CO)c(CNc2cccc(-c3ccccc3S(N)(=O)=O)c2)c1O [Compound 32]', 'IC50', '> 1000 µM'),
  ('Cc1ncc(CNC(=O)c2ccc(-c3ccccc3S(N)(=O)=O)cc2)c(CO)c1OCc1cccc(C(=N)N)c1 [Compound 23]', 'IC50', '97 µM');

Go through the list and state IC50 for each entry.
1. Cc1ncc(CNc2ccc(C(=N)N)cc2)c(CO)c1O [Compound 33, reference compound]
2. Cc1ncc(CNc2ccc(-c3ccccc3S(N)(=O)=O)cn2)c(CO)c1O [Compound 31]
3. Cc1ncc(CO)c(CNc2ccc(-c3ccccc3S(N)(=O)=O)cc2)c1O [Compound 8]

1. 300 µM
2. > 1000 µM
3. > 1000 µM

----------
Test system: human trypsin
Assay Comment: Inhibition of serine protease activity, trypsin, chromogenic substrate Pefachrome Try
Format: biochemical
Condition Details: 2 nM human trypsin, 300 μM substrate, pH 7.5
pIC50: −log10 of the molar value.
Property Label: pIC50

INSERT INTO measurements (structure_notation, test_value) VALUES
  ('Cc1ncc(CNc2ccc(-c3ccccc3S(N)(=O)=O)cn2)c(CO)c1O', '< 3.00'),
  ('Cc1ncc(CNc2ccc(-c3ccccc3S(=O)(=O)NC(C)(C)C)cc2)c(CO)c1O', '< 3.00');

Please examine the following record next.
Give the value of pIC50 reported for the following: "Cc1ncc(CNC(=O)c2ccc(-c3ccccc3S(=O)(=O)NC(C)(C)C)cc2)c(CO)c1O"
< 3.00
